- testedOn: Progesterone receptor (Homo sapiens) (UniProt P06401)
- Sequence (P06401 whole entry, looked up): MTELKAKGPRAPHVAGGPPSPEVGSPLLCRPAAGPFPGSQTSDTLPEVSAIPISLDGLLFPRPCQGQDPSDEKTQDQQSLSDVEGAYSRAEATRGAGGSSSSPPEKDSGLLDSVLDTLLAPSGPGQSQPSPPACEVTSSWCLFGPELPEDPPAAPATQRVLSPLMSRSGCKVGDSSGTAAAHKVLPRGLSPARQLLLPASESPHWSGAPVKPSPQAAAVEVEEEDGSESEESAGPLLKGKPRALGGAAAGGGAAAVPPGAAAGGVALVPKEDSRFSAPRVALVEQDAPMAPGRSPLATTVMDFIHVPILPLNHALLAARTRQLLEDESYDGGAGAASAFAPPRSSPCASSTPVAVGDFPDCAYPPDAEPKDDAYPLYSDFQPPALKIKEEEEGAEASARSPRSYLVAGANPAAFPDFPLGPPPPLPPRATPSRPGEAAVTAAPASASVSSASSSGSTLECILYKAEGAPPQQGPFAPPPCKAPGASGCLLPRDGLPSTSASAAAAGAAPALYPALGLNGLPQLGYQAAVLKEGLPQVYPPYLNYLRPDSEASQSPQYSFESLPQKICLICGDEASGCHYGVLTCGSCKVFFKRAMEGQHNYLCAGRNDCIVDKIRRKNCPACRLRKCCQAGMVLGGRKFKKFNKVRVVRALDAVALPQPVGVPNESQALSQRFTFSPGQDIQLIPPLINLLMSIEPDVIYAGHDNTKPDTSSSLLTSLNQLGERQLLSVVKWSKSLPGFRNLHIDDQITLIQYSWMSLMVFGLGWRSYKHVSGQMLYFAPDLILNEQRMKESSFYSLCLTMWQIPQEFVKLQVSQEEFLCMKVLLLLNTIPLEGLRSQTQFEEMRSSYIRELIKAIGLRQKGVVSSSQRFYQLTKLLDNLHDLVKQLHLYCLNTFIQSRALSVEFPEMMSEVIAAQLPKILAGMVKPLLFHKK
- experimentNotes: qHTS assay to identify small molecule agonists of the progesterone receptor (PR) signaling pathway (AID 1346784); also: nearly all actives have a fitted effect of over 30% in size
- runParameters: PR-UAS-bla HEK293T, beta-lactamase FRET ratio, 16 h; series mostly up to 92.4 µM
Inconclusive results are not listed. Activity calls are given as the source filed them. Calls follow the shape of the full dose curve.
observable: outcome

Before answering, review these 6 worked examples.
[[record]]
molecule = "CCCC[P+](CC)(CCCC)CCCC (tested in a mixture with another compound)"
observable = "outcome"
testresult = "inactive"

[[record]]
molecule = "c1ccc2c(c1)-c1cccc3cccc-2c13"
observable = "outcome"
testresult = "inactive"

[[record]]
molecule = "OC[P+](CO)(CO)CO"
observable = "outcome"
testresult = "inactive"

[[record]]
molecule = "C=CC(=O)NC(C)(C)CC(C)=O"
observable = "outcome"
testresult = "inactive"

[[record]]
molecule = "Cc1cnc(C2=NC(C)(C(C)C)C(=O)N2)c(C(=O)O)c1 (stereo not drawn)"
observable = "outcome"
testresult = "inactive"

[[record]]
molecule = "CC(C)CCON=O"
observable = "outcome"
testresult = "inactive"


Problem: Report outcome for O=C(O)C(O)C(O)C(=O)O (stereo not drawn) tested on Progesterone receptor (Homo sapiens) (UniProt P06401).
Result: inactive

Problem: Next molecule: `O=C(O)C(F)(F)C(F)(F)C(F)(F)C(F)(F)C(F)(F)C(F)(F)C(F)(F)C(F)(F)F`
Result: inactive

Problem: Next molecule: `Cc1ccc2c(C)cccc2c1`
Result: inactive

Problem: Next molecule: `CC(=O)NNc1ccccc1`
Result: inactive

Problem: Next molecule: `C=C(C)C(=O)OCCCCOC(=O)C(=C)C`
Result: inactive

Problem: Next molecule: `O=C(NC(=O)c1cc(F)c(F)cc1Cl)Nc1cc(F)ccc1N1CCC(C(=O)O)CC1`
Result: inactive

Problem: Next molecule: `CCCCCBr`
Result: inactive

* * *

- experimentNotes: Caspase-3/7 induction in HepG2 cells by small molecules, qHTS cell viability counter screen (AID 1346981); also: nearly all actives have a fitted effect of over 30% in size
- runParameters: CellTiter-Fluor fluorescence, 17 h; series mostly up to 92.4 µM
Inconclusive results are not listed. Activity calls are given as the source filed them. Calls come from the whole dose curve; as a rule, active = well fitted cell-killing curve with a large enough effect in the repeat runs; inconclusive = weak or mixed curves, or effect the other way; inactive = flat fitted curve, though single readings scatter.
Log the outcome using a class from active, inactive

// known answers, use as guide
[[record]]
compound = "COc1cc(CC(C)N)c(OC)cc1Br (stereo not given)"
group = "inactive"

[[record]]
compound = "O=C(NCNC(=O)NC1C(=O)NC(=O)N1CO)NC1C(=O)NC(=O)N1CO (stereo not given)"
group = "inactive"

[[record]]
compound = "Cc1ncc(C[n+]2csc(CCO)c2C)c(N)n1"
group = "inactive"

[[record]]
compound = "O=C(O)C(Cl)(Cl)Br"
group = "inactive"

[[record]]
compound = "CC(Cl)C(=O)O (stereo not given)"
group = "inactive"


Problem: Look up the recorded call for `O=C(N/N=C/c1ccc([N+](=O)[O-])o1)c1cc([N+](=O)[O-])cc([N+](=O)[O-])c1O` in this test.
Result: active

Problem: Next compound: `CC(C)c1ccc(NC(=O)N(C)C)cc1`
Result: inactive

Problem: Next compound: `CN(C)C(=O)Nc1cccc(OC(=O)NC(C)(C)C)c1`
Result: inactive

Problem: Next compound: `C=CCc1ccccc1O`
Result: inactive

Problem: Next compound: `CC(C)CCON=O`
Result: inactive
